procedure summary: Pharmacokinetic assay in ICR mice (i.v. and p.o.)
Assay type: in vivo
settings: mouse, plasma; male ICR mice, po, 10 mg/kg
test readout: Cmax (µg/mL)

Please review the following examples before continuing.
- compound: "CCNC(=O)c1ccc(Nc2ncc3c(n2)n(C2CCOCC2)c(=O)n3C)c(C)c1 [Compound 29]"
  Cmax, µg/mL: 1.82
- compound: "Cc1cc(C(N)=O)ncc1Nc1ncc2c(n1)n(C1CCOCC1)c(=O)n2C [Compound 18]"
  Cmax, µg/mL: 0.312
- compound: "Cn1c(=O)n(C2CCOCC2)c2nc(Nc3ccc(C(N)=O)cc3Cl)ncc21 [Compound 26]"
  Cmax, µg/mL: 2.73

1: Cc1cc(C#N)ccc1Nc1ncc2c(n1)n([C@H]1CC[C@@H](C#N)CC1)c(=O)n2C [Compound 78]
2: Cc1cc(C(N)=O)c(F)cc1Nc1ncc2c(n1)n([C@H]1CC[C@H](C#N)CC1)c(=O)n2C [Compound 79]
3: [2H]C([2H])([2H])n1c(=O)n(C2CCOCC2)c2nc(Nc3ccc(C#N)cc3C)ncc21 (single isomer, unassigned) [Compound 6]
[Q] Endpoint returns the given compounds ordered by ascending Cmax. Sort and list the labels as requested.
[A] 1, 3, 2
(1: 0.446 µg/mL, 3: 1.22 µg/mL, 2: 2.49 µg/mL)

The reported measurements were obtained from patent US20230165867A1.
